- Test system: SNB-75 CNS
- PROCEDURE_SUMMARY: NCI-60 one-dose screen, 48 h (100 = growth as untreated, 0 = no growth, -100 = all killed)
- EXPERIMENTAL_CONTEXT: 10 µM unless noted
Compounds without any hit were thinned out: in the full panel of roughly 83,000, 20% have a hit.

| COMPOUND | growth, % |
| --- | --- |
| O=C(Nc1ccccc1C(=O)N/N=C(\c1ccccc1)c1ccccn1)c1ccc(F)cc1 | 16.2 |
| CN1CCC(=C(c2ccccc2)c2ccccc2)C(c2ccccc2)C1 (centres undefined) | 88 |
| COc1cc(C2C3=C(COC3=O)N(CCO)c3cc4c(cc32)OCO4)cc(OC)c1OC (centres undefined) | 51 |
| N#CC(C#N)=Cc1cc2ccccc2nc1Oc1ccc(C(F)(F)F)cc1 | 84.2 |
| Cc1ccc(C(=O)/C(=C/c2ccc([N+](=O)[O-])cc2)SCc2ccc(Cl)cc2)cc1 | 84.8 |
| Clc1ccc(-c2ccc(CNCC3CCNCC3)o2)c(-c2ccccc2)c1 | -90.8 |
| O=C(C[n+]1cccc2ccccc21)c1ccc(O)c(O)c1 | 66 |
| NC(=NCc1ccccc1)C(N=Nc1ccccc1)C(=O)NCc1ccccc1 (centres undefined) | 96.9 |
| CCCCCC(=O)Oc1ccc(/C(=C(\C)c2ccccc2)c2ccc(OCCN3CCCCC3)cc2)cc1 | 92 |
| COc1ccc(C(=O)NNc2nc(Cl)nc(N3CCN(C(c4ccccc4)c4ccccc4)CC3)n2)cc1 | 61.5 |
| COc1ccc(-c2nc3sccn3c2/C=C/C(=O)c2ccc3c(c2)OCO3)cc1 | 72.3 |
| Oc1ccc(OCCOc2ccc(O)cc2)cc1 | 73.8 |
| CCOC(=O)/C(C#N)=C1/NNC(=Nc2cccnc2)S1 | 92 |
| O=S(=O)(NCCNc1nccc(-c2c(-c3cccc(O)c3)nc3occn23)n1)c1ccccc1 | 87.8 |

* * *

Listed below: growth values for each entry.
- Test system: HOP-62 NSCLC
- PROCEDURE_SUMMARY: NCI-60 one-dose screen, 48 h (100 = growth as untreated, 0 = no growth, -100 = all killed)
- EXPERIMENTAL_CONTEXT: 10 µM unless noted
Compounds without any hit were thinned out: in the full panel of roughly 83,000, 20% have a hit. Calls of active or inactive are those of the source. The calls were made as follows: active = growth percent below 10; inactive = the rest.

| SUBSTANCE_SMILES | growth |
| --- | --- |
| CCN1Cc2nc3sc(C)c(C)c3c(=O)n2C=C1C | 32.6% (inactive) |
| Cc1ccc(S(=O)(=O)Nn2c3c(cc(-c4nc5ccccc5s4)c2=O)CCCCCC3)cc1 | 94.9% (inactive) |
| COc1cc(/C=C/C(=O)c2nc3cc(F)ccc3nc2C)cc(OC)c1OC | 106% (inactive) |
| O=S(=O)(Nc1ccc(-n2cnc3cc(-c4ccc(O)cc4)ccc32)cc1)c1ccccc1 | 102% (inactive) |
| CCOC(=O)C1=C(C)NC(SCc2cc(=O)oc3ccc(F)cc23)=N[C@@H]1c1cccc2ccccc12 | 90.8% (inactive) |
| COc1ccc(C(=O)c2nc3ccccc3n2CC(=O)c2ccc(Cl)cc2)cc1 | 42.4% (inactive) |

* * *

- System: SF-539 CNS
- PROCEDURE_SUMMARY: NCI-60 one-dose screen, 48 h
- EXPERIMENTAL_CONTEXT: 10 µM unless noted
The panel holds about 83,000 compounds, 20% with a hit somewhere; the sample as a whole holds those more often. Activity calls are given as the source filed them. The calls were made as follows: active = growth percent below 10; inactive = the rest.
Possible outcomes: active, inactive

| MOLECULE | CLASS_NAME |
| --- | --- |
| O=C(/C(=C\c1ccc([N+](=O)[O-])cc1)S(=O)Cc1ccc(F)cc1)c1ccc(F)cc1 (configuration not stated) | inactive |
| O=C(c1nc2ccccc2[nH]1)C1C(c2ccc(Cl)cc2)C2CC3CCCC[C@H]3N2[C@@]12C(=O)Nc1cc(Cl)ccc12 (some centres not stated) | inactive |
| O=C(Nc1cccc(C(=O)N2CCc3ccc(Cl)cc32)c1)c1ccco1 | inactive |
| O=C1/C=C/[C@@H](O)[C@@H]2C[C@@H](O)C[C@H]2/C=C/CCC[C@H](CCc2ccc3ncccc3c2)O1 | inactive |
| COc1ccc(OC)c(CCn2cncc2-c2c[nH]c3ccccc23)c1 | inactive |
| CC1(C)CC(O)CCCCCCOc2c(CN)cccc2NC(=O)c2nc(cnc2N)-c2ccc(cc2)S1(=O)=O (configuration not stated) | active |
| COc1ccccc1NC(=O)C1CC(c2ccc(F)cc2)=NO1 (configuration not stated) | inactive |

* * *

Here the recorded growth is given for each entry.
- System: LOX IMVI melanoma
- PROCEDURE_SUMMARY: NCI-60 one-dose screen, 48 h (100 = growth as untreated, 0 = no growth, -100 = all killed)
- EXPERIMENTAL_CONTEXT: 10 µM unless noted
The panel holds about 83,000 compounds, 20% with a hit somewhere; the sample as a whole holds those more often.

| MOLECULE | TARGET_OR_SYSTEM | growth, % |
| --- | --- | --- |
| Oc1ccc(C2c3ccccc3Oc3ccccc32)c2cccnc12 | LOX IMVI melanoma | 5.35 |
| OC(c1cccc(C(F)(F)F)c1)c1cnccc1NC1CCCCC1 (centres undefined) | LOX IMVI melanoma | 82.4 |
| CCCOc1ccc(/C=N/Nc2cc(C)nc3ccc(Br)cc23)cc1 | LOX IMVI melanoma | 59.9 |
| COc1ccc(C(=O)CSc2nc(-c3cc(OC)ccc3OC)cc(-c3ccc(Cl)cc3)c2C#N)cc1 | LOX IMVI melanoma | 68.5 |

* * *

- Test system: A549/ATCC NSCLC
- PROCEDURE_SUMMARY: NCI-60 one-dose screen, 48 h (100 = growth as untreated, 0 = no growth, -100 = all killed)
- EXPERIMENTAL_CONTEXT: 10 µM unless noted
Compounds without any hit were thinned out: in the full panel of roughly 83,000, 20% have a hit.
One threshold, 80%, splits the recorded growth values: lower ones are Yes, equal or higher ones are No.

| COMPOUND | TARGET_OR_SYSTEM | CLASS_NAME |
| --- | --- | --- |
| COc1cc(/C=C/C(=O)c2nc3cc(F)ccc3nc2C)cc(OC)c1OC | A549/ATCC NSCLC | Yes |
| COC(=O)N[C@H]1CCc2c(Cl)c(OC)c(OC)c(OC)c2-c2ccc(SC)c(=O)cc21 | A549/ATCC NSCLC | Yes |
| CC(=O)Nc1ccc(-c2ccc3c(c2)NC(=O)/C3=C\c2ccc[nH]2)cc1 | A549/ATCC NSCLC | No |
| Cc1ccc(C(=O)/C(=C/c2ccc([N+](=O)[O-])cc2)SCc2ccc(Cl)cc2)cc1 | A549/ATCC NSCLC | Yes |
| CC1=CCC(OC(=O)C(C)(O)CCC(O)(C(=O)OC2(C)C=CC(O)(C(C)C)CC2)C(C)C)(C(C)C)CC1 (stereo not given) | A549/ATCC NSCLC | No |
| CCCCC/C=C/C(C)=C/C1CC(C)C/C=C/CCC(O)C(OC(N)=O)CCC(C)CC(O)C(C)C(=O)O1 (stereo not given) | A549/ATCC NSCLC | No |
| CN(C)CC(O)c1ccc(/C=C/c2ccc(Cl)cc2)cc1 (stereo not given) | A549/ATCC NSCLC | Yes |
| COc1cc(/C=N/O)nc(-c2ccccn2)c1 | A549/ATCC NSCLC | Yes |
| O=S(=O)(NCCCNc1nccc(-c2c(-c3cccc(O)c3)nc3occn23)n1)c1ccc(Cl)cc1 | A549/ATCC NSCLC | No |
| N#C/C(=C\c1ccc(C(F)(F)F)cc1)c1cc2ccccc2[nH]1 | A549/ATCC NSCLC | No |
| CCCCCN1C=C/C(=C\C(=O)n2ccc3ccccc32)c2ccccc21 | A549/ATCC NSCLC | No |
| CCN1Cc2nc3sc(C)c(C)c3c(=O)n2C=C1C | A549/ATCC NSCLC | No |
| CN1C(=O)NC(c2ccc3c(c2)OCO3)C=C1c1ccccc1 (stereo not given) | A549/ATCC NSCLC | No |
| C=C1C(=O)O[C@H]2[C@H]1CC/C(CNC(=O)c1cccc3ccccc13)=C\CC[C@@]1(C)O[C@@H]21 | A549/ATCC NSCLC | Yes |

* * *

- Tested on: LOX IMVI melanoma
- PROCEDURE_SUMMARY: NCI-60 one-dose screen, 48 h
- EXPERIMENTAL_CONTEXT: 10 µM unless noted
Compounds without any hit were thinned out: in the full panel of roughly 83,000, 20% have a hit. Active and inactive are the calls of the source. Rule for the calls: active = growth percent below 10; inactive = the rest.
Classes used: active, inactive

| SUBSTANCE_SMILES | CLASS_NAME |
| --- | --- |
| CC[C@]12C=CCN3CC[C@@]4(c5cc(NC(=O)CCC(=O)O[C@H]6CC[C@H]7[C@@H]8CCC9=CC(=O)CC[C@@H]9[C@H]8CC[C@]67C)c(OC)cc5N(C)[C@H]4[C@@](O)(C(=O)OC)[C@@H]1OC(C)=O)[C@@H]32 | inactive |
| O=S(=O)(Nc1ccc(-n2cnc3cc(-c4ccc(O)cc4)ccc32)cc1)c1ccccc1 | inactive |
| CCCCCN1C=C/C(=C\C(=O)n2ccc3ccccc32)c2ccccc21 | inactive |
| COc1cc(C2=C(c3cn(C)c4ccccc34)COC2=O)cc(OC)c1OC | active |
| CCN(CC)c1ccc(C(=O)c2ccccc2)cc1 | inactive |
| CCOC(=O)c1ccc2c(c1)ncn2-c1ccc(NC(=O)Nc2cccc(C)c2)cc1 | active |
| CN1CCN(CCNc2nccc(-c3c(-c4cccc(O)c4)nc4sccn34)n2)S1(=O)=O | inactive |
| Cn1c2ccccc2c2c3c(c4c5ccccc5n(C)c4c21)C(=O)OC3 | inactive |
| Cc1cc(Cl)nc(N(CCNc2ccnc3cc(Cl)ccc23)Cc2ccccn2)n1 | inactive |
| COc1ccc(/C=C/C(=O)Nc2cc(/C=C\c3cc(OC)c(OC)c(OC)c3)cc(OC)c2OC)cc1OC | inactive |
| Nc1c(C(=O)Nc2cccc3cnccc23)sc2nc3c(cc12)CN(Cc1ccccc1)CC3 | inactive |
| CCOC(=O)Oc1c(OC)cc(C(=O)c2ccc(OC)c(OC(=O)CCl)c2OC)cc1OC | inactive |
| Cc1ccc(NC(=O)c2cc(-c3nc4ccccc4s3)c(=O)n(NS(=O)(=O)c3ccc(Cl)cc3)c2N)cc1 | inactive |
| O=C1Nc2cc(-c3ccc(NS(=O)(=O)c4ccccc4)cc3)ccc2/C1=C/c1ccc[nH]1 | inactive |
| CCCCCCNC(=O)Oc1ccc(/C(=C(\C)c2ccccc2)c2ccc(OCCN3CCCCC3)cc2)cc1 | inactive |
| COc1ccc(C(=O)Cn2c(C(=O)c3ccccc3)nc3ccccc32)cc1 | inactive |
| Nc1c(C(=O)Nc2ccnc3ccccc23)sc2nc3c(cc12)CN(Cc1ccccc1)CC3 | inactive |
| O=C1Nc2cc(-c3ccc(NC(=O)C4CC4)cc3)ccc2/C1=C/c1ccc[nH]1 | inactive |
| O=C(Nc1ncc(Cc2cc(Cl)ccc2Cl)s1)c1cccs1 | inactive |
| COc1ccccc1/C=C1\Oc2cc(OCCN3CCCC3)ccc2C1=O | inactive |
| c1ccc2cc(Cn3c(-c4cccc5ccccc45)[n+](Cc4ccc5ccccc5c4)c4c5ccccc5c5ccccc5c43)ccc2c1 | active |
| O=c1[nH]nc(-c2ccccc2)c2sc3ncc(-c4ccc(Br)cc4)n3c12 | inactive |
| CNC(=O)c1cccc(Cn2nc(C)c(NC(=O)c3ccc(COc4ccc(C(F)(F)F)cc4C)cc3)c2C)n1 | inactive |
